Each entry below carries its reported Emax at 10 µM.
Measured Target: GABAA receptors composed of the α1β2γ2 subunits (GABRA1/GABRB2/GABRG2) (Homo sapiens, UniProt P14867+P47870)
Construct: expressed in transfected cells; host or cells: Xenopus laevis oocytes, injected (ratio 1:1:1)
Sequence (P14867 28-456): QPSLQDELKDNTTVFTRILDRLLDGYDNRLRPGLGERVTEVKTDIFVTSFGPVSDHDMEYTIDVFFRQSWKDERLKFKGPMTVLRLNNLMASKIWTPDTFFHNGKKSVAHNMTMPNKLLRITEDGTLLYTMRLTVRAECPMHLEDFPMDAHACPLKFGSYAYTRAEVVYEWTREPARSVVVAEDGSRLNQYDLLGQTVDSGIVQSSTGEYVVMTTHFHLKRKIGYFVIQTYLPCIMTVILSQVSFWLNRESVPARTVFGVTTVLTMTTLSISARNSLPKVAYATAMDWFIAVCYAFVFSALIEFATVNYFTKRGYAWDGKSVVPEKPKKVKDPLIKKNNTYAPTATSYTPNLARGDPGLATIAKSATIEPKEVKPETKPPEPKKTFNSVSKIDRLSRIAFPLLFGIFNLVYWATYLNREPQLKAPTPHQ
Sequence (P47870 26-512): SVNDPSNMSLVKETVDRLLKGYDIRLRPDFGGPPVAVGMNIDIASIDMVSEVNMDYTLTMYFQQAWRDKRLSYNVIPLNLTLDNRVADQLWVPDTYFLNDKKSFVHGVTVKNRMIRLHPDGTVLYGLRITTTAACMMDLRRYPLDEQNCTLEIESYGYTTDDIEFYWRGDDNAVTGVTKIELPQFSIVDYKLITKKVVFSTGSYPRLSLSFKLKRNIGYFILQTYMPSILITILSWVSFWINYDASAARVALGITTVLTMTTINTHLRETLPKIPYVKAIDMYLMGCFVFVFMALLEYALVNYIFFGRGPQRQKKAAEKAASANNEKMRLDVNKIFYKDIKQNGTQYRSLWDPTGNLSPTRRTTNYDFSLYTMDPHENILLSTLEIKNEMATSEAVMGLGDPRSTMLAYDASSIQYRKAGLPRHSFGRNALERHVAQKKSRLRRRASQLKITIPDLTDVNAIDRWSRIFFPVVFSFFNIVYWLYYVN
Sequence (P18507 40-475 partner): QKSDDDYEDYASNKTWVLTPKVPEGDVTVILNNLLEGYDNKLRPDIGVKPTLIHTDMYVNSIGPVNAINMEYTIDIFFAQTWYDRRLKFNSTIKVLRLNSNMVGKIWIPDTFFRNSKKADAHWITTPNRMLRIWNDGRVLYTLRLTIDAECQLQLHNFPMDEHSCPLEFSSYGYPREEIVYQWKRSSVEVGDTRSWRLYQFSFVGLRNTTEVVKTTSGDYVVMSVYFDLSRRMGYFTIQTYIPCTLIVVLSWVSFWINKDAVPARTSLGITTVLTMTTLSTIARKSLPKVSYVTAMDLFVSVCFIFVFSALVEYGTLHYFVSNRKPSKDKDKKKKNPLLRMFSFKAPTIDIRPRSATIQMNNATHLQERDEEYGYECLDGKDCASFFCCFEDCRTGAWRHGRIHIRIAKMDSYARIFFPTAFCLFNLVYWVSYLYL
Assay Name: Two Electrode Voltage Clamp (TEVC), GABA receptor potentiation in Xenopus laevis oocytes, α1β2γ2
Format: cell-based
Experimental Parameters: 10 μM compound, 10 μM GABA, read-out: GABA (α1β2γ2) % efficacy at 10 μM

The reported Emax at 10 µM of the compound COC[C@]12CC[C@@](C)(O)C[C@@H]1CC[C@H]1[C@@H]3CC[C@H](C(=O)Cn4nnc5cc(F)c(F)cc54)[C@@]3(C)CC[C@@H]12 was 500 to 1000%

The reported Emax at 10 µM of the compound COC[C@]12CC[C@@](C)(O)C[C@H]1CC[C@H]1[C@@H]3CC[C@H](C(=O)Cn4cnc5ccccc54)[C@@]3(C)CC[C@@H]12 was 500 to 1000%

###

Measured Target: GABAA receptors composed of the α1β2γ2 subunits (GABRA1/GABRB2/GABRG2) (Homo sapiens, UniProt P14867+P47870)
Construct: expressed in transfected cells; host or cells: Xenopus laevis oocytes, injected (ratio 1:1:1)
Assay Name: Two Electrode Voltage Clamp (TEVC), GABA receptor potentiation in Xenopus laevis oocytes, α1β2γ2
Assay type: cell-based
Experimental Parameters: 10 μM compound, 10 μM GABA, read-out: GABA (α1β2γ2) % efficacy at 10 μM
Endpoint Label: Emax at 10 µM

Worked examples follow.
COC[C@]12CC[C@@](C)(O)C[C@@H]1CC[C@H]1[C@@H]3CC[C@H](C(=O)Cn4nnc5cccc(F)c54)[C@@]3(C)CC[C@@H]12: 500 to 1000%
COC[C@]12CC[C@@](C)(O)C[C@@H]1CC[C@H]1[C@@H]3CC[C@H](C(=O)Cn4cc5ncc(Cl)cc5n4)[C@@]3(C)CC[C@@H]12: 50 to 500%
COC[C@]12CC[C@@](C)(O)C[C@@H]1CC[C@H]1[C@@H]3CC[C@H](C(=O)Cn4nc5cc(F)c(F)cc5n4)[C@@]3(C)CC[C@@H]12: 500 to 1000%
COC[C@]12CC[C@@](C)(O)C[C@@H]1CC[C@H]1[C@@H]3CC[C@H](C(=O)Cn4ncc5ncccc54)[C@@]3(C)CC[C@@H]12: 500 to 1000%
COC[C@]12CC[C@@](C)(O)C[C@@H]1CC[C@H]1[C@@H]3CC[C@H](C(=O)Cn4nc5ccc(Cl)c(F)c5n4)[C@@]3(C)CC[C@@H]12: 50 to 500%

The reported Emax at 10 µM of the molecule COC[C@]12CC[C@@](C)(O)C[C@@H]1CC[C@H]1[C@@H]3CC[C@H](C(=O)Cn4nnc5c(OC)cccc54)[C@@]3(C)CC[C@@H]12 was 500 to 1000%

The reported Emax at 10 µM of the molecule COC[C@]12CC[C@@](C)(O)C[C@H]1CC[C@H]1[C@@H]3CC[C@H](C(=O)Cn4nc5ccc(F)c(F)c5n4)[C@@]3(C)CC[C@@H]12 was 500 to 1000%

The reported Emax at 10 µM of the molecule COC[C@]12CC[C@@](C)(O)C[C@@H]1CC[C@H]1[C@@H]3CC[C@H](C(=O)Cn4nc5ccc(OC)c(OC)c5n4)[C@@]3(C)CC[C@@H]12 was 1000 to 1500%

###

Each entry below carries its reported IC50.
Measured Target: [35S]-TBPS binding in rat brain cortical membranes
Assay Name: Steroid inhibition of [35S]-TBPS binding, rat brain cortical membranes
Experimental Parameters: 3 nM [35S]-TBPS, in the presence of 5 μM GABA, read-out: 35S-TBPS Radioligand Displacement (IC50)

Worked examples follow.
C[C@@]1(O)CC[C@@]2(CO)[C@@H](CC[C@H]3[C@@H]4CC[C@H](C(=O)Cn5cccn5)[C@@]4(C)CC[C@@H]32)C1: > 500 nM
COC[C@]12CC[C@@](C)(O)C[C@@H]1CC[C@H]1[C@@H]3CC[C@H](C(=O)Cn4cc5cc(Cl)ccc5n4)[C@@]3(C)CC[C@@H]12: 100 to 500 nM

Now for another entry.
The reported IC50 of the compound COC[C@]12CC[C@@](C)(O)C[C@@H]1CC[C@H]1[C@@H]3CC[C@H](C(=O)Cn4nnc5c(F)cc(F)cc54)[C@@]3(C)CC[C@@H]12 was 50 to 100 nM

###

Measured Target: GABAA receptors composed of the α4β3δ subunits (GABRA4/GABRB3/GABRD) (Homo sapiens, UniProt P28472+P48169)
Construct: expressed in transfected cells; host or cells: Xenopus laevis oocytes, injected (ratio 5:1:5)
Sequence (P48169 36-554): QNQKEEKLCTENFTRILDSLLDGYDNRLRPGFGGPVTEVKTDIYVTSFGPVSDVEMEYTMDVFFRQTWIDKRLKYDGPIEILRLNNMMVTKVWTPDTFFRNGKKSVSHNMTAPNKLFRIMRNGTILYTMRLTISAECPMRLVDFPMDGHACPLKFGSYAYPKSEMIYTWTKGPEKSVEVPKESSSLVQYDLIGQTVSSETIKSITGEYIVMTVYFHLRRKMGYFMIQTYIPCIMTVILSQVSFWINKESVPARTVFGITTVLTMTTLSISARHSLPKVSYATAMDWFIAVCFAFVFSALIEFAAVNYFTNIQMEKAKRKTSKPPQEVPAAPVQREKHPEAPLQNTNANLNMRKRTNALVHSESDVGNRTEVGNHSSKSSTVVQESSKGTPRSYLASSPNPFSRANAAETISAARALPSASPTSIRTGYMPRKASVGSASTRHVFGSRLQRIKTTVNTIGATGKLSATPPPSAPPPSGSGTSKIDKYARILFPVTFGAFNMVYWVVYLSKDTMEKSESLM
Sequence (P28472 26-473): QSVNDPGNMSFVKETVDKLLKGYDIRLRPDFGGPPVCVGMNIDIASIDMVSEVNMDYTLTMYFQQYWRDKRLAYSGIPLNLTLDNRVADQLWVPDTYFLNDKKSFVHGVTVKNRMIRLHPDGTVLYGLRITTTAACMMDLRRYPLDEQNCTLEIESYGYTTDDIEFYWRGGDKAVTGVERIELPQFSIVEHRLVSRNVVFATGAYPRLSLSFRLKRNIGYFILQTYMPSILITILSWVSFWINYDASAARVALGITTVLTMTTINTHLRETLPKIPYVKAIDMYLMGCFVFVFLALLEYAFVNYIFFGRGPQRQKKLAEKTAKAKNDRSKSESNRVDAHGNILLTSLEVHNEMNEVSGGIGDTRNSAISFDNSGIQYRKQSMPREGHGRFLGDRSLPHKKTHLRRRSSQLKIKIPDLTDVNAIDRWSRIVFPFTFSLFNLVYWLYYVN
Sequence (O14764 25-452 partner): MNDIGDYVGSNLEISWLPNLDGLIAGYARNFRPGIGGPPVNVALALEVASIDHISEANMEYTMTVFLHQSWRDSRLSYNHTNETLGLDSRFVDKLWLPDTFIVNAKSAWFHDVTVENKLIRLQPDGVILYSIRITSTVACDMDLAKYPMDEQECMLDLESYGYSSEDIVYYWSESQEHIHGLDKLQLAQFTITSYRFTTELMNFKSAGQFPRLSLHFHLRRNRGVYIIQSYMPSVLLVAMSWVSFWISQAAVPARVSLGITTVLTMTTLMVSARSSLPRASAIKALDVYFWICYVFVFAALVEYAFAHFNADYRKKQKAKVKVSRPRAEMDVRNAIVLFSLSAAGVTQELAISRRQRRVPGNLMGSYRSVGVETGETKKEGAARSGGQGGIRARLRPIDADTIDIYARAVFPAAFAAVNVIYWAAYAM
Assay Name: Two Electrode Voltage Clamp (TEVC), GABA receptor potentiation in Xenopus laevis oocytes, α4β3δ
Type: cell-based
Experimental Parameters: 10 μM compound, 3 μM GABA, read-out: GABA (α4β3δ) % efficacy at 10 μM
Endpoint Label: Emax at 10 µM

Worked examples follow.
COC[C@]12CC[C@@](C)(O)C[C@H]1CC[C@H]1[C@@H]3CC[C@H](C(=O)Cn4cc(S(C)(=O)=O)cn4)[C@@]3(C)CC[C@@H]12 [Compound 33]: 50 to 500%
CCOC[C@]12CC[C@@](C)(O)C[C@@H]1CC[C@H]1[C@@H]3CC[C@H](C(=O)Cn4nc5ccc(Cl)cc5n4)[C@@]3(C)CC[C@@H]12 [Compound 72]: 1000 to 1500%
COC[C@]12CC[C@@](C)(O)C[C@H]1CC[C@H]1[C@@H]3CC[C@H](C(=O)Cn4nnc(C)n4)[C@@]3(C)CC[C@@H]12 [Compound 29]: 500 to 1000%
COC[C@]12CC[C@@](C)(O)C[C@@H]1CC[C@H]1[C@@H]3CC[C@H](C(=O)Cn4ncc5nccnc54)[C@@]3(C)CC[C@@H]12 [Compound 102]: 50 to 500%

The reported Emax at 10 µM of the molecule COC[C@]12CC[C@@](C)(O)C[C@@H]1CC[C@H]1[C@@H]3CC[C@H](C(=O)Cn4nnc5cccc(F)c54)[C@@]3(C)CC[C@@H]12 [Compound 47] was 1000 to 1500%

The reported Emax at 10 µM of the molecule COC[C@]12CC[C@@](C)(O)C[C@@H]1CC[C@H]1[C@@H]3CC[C@H](C(=O)Cn4nc5ccc(OC(F)(F)F)cc5n4)[C@@]3(C)CC[C@@H]12 [Compound 104] was 1000 to 1500%

The reported Emax at 10 µM of the molecule COC[C@]12CC[C@@](C)(O)C[C@@H]1CC[C@H]1[C@@H]3CC[C@H](C(=O)Cn4nnc5ccc(OC)c(OC)c54)[C@@]3(C)CC[C@@H]12 [Compound 62] was 1000 to 1500%

The reported Emax at 10 µM of the molecule COC[C@]12CC[C@@](C)(O)C[C@@H]1CC[C@H]1[C@@H]3CC[C@H](C(=O)Cn4ncc5ccncc54)[C@@]3(C)CC[C@@H]12 [Compound 45] was 1000 to 1500%

The reported Emax at 10 µM of the molecule COC[C@]12CC[C@@](C)(O)C[C@H]1CC[C@H]1[C@@H]3CC[C@H](C(=O)Cn4nc5ccc(F)c(F)c5n4)[C@@]3(C)CC[C@@H]12 [Compound 79] was 1000 to 1500%

The reported Emax at 10 µM of the molecule COC[C@]12CC[C@@](C)(O)C[C@@H]1CC[C@H]1[C@@H]3CC[C@H](C(=O)Cn4nnc5cccc(Cl)c54)[C@@]3(C)CC[C@@H]12 [Compound 59] was 500 to 1000%

The reported Emax at 10 µM of the molecule COC[C@]12CC[C@@](C)(O)C[C@@H]1CC[C@H]1[C@@H]3CC[C@H](C(=O)Cn4cc5ncc(Cl)cc5n4)[C@@]3(C)CC[C@@H]12 [Compound 68] was 1000 to 1500%

The reported Emax at 10 µM of the molecule COC[C@]12CC[C@@](C)(O)C[C@@H]1CC[C@H]1[C@@H]3CC[C@H](C(=O)Cn4nnc5c(OC)cccc54)[C@@]3(C)CC[C@@H]12 [Compound 58] was 500 to 1000%

The reported Emax at 10 µM of the molecule COC[C@]12CC[C@@](C)(O)C[C@@H]1CC[C@H]1[C@@H]3CC[C@H](C(=O)Cn4ncc5ncc(Br)cc54)[C@@]3(C)CC[C@@H]12 [Compound 67] was 500 to 1000%

The reported Emax at 10 µM of the molecule COC[C@]12CC[C@@](C)(O)C[C@@H]1CC[C@H]1[C@@H]3CC[C@H](C(=O)Cn4nnc5cc(F)c(F)cc54)[C@@]3(C)CC[C@@H]12 [Compound 98] was 1000 to 1500%

The reported Emax at 10 µM of the molecule COC[C@]12CC[C@@](C)(O)C[C@@H]1CC[C@H]1[C@@H]3CC[C@H](C(=O)Cn4nnc5ccc(OC)cc54)[C@@]3(C)CC[C@@H]12 [Compound 51] was 1000 to 1500%

The reported Emax at 10 µM of the molecule COC[C@]12CC[C@@](C)(O)C[C@H]1CC[C@H]1[C@@H]3CC[C@H](C(=O)Cn4nnc5c(F)cccc54)[C@@]3(C)CC[C@@H]12 [Compound 82] was 500 to 1000%

The reported Emax at 10 µM of the molecule COC[C@]12CC[C@@](C)(O)C[C@@H]1CC[C@H]1[C@@H]3CC[C@H](C(=O)Cn4ccnc4F)[C@@]3(C)CC[C@@H]12 [Compound 21] was 50 to 500%

The reported Emax at 10 µM of the molecule COC[C@]12CC[C@@](C)(O)C[C@@H]1CC[C@H]1[C@@H]3CC[C@H](C(=O)Cn4cc(Cl)cn4)[C@@]3(C)CC[C@@H]12 [Compound 18] was 1000 to 1500%

The reported Emax at 10 µM of the molecule COC[C@]12CC[C@@](C)(O)C[C@@H]1CC[C@H]1[C@@H]3CC[C@H](C(=O)Cn4ncc5ncc(Cl)cc54)[C@@]3(C)CC[C@@H]12 [Compound 69] was 1000 to 1500%

The reported Emax at 10 µM of the molecule COC[C@]12CC[C@@](C)(O)C[C@@H]1CC[C@H]1[C@@H]3CC[C@H](C(=O)Cn4nc5ccc(Cl)c(F)c5n4)[C@@]3(C)CC[C@@H]12 [Compound 109] was 1000 to 1500%
